Assay Method Text: Drug concentration in brain of Dp1Yey C57BL/6J mouse model at 50 mg/kg by UHPLC-MS/MS analysis
Assay type: ADME, organism-based
Experimental Context: in vivo, read-out: Ct
Experimental Readout: concentration (nM)
Report only the number, with the unit nM understood.

# concentration lookup, item O=C(c1cc(O)c(O)c(O)c1)N1Cc2c(O)cc(O)cc2CC1c1cc(O)c(O)c(O)c1 (stereo unspecified)
27.6
